Data origin: patent US20180094062A1

Measurement Target: T1, TtSlyDcas-Her3
T1 chain: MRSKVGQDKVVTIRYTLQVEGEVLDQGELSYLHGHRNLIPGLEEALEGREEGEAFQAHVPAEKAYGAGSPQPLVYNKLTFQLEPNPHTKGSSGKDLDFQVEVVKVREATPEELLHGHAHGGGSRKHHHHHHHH
Measurement Notes: ELISA, antigen coated, hybridoma supernatant
Catalogue of binders with associated OD 405 nm
Just the number please, in OD, no unit attached.

Binder	OD 405 nm (OD)
anti-HER3 antibody M-17-02 (antibody, V domains shown, mouse hybridoma clone) VH: EVQLQQSGTVLARPGASVKMSCKASGYSFTSYWIHWVKQRPGQGLEWIGAIYPGNSDTTYNQKFKGKAKLTAVTSASTAYMELSSLTNEDSAVYYCARTGVWTSYYFDYWGQGTTLTVSS VL: DIQMTQSPASLSASVGETVTITCRASENIYSNLAWYQQKQGKSPQLLVYAATNLADGVPSRFSGSGSGTQFSLRINSLQPEDFGSYYCQHFYGTPFTFGTGTKLEIK	1.53
anti-HER3 antibody M-08-11 (antibody, V domains shown, mouse monoclonal antibody from hybridoma, tested as hybridoma supernatant or as antibody; also called M-011) VH: QAYLQQSGAELMRPGASVRMSCQASGYTFTSYTIHWLKQTPRQGLEWIGAIYPRNGDFSYNQKFKDKASLTVDTSSSTAYMHLSSLTSEDSAVYFCARTINYGDWFAYWGQGTLVTVSA VL: DIQMIQSPASLFVSEGETVIITCRASENIYSNLAWYHQKKGKSPQVLVYAAIKLADGVPLRFSGSGSGTQFSLKINSLQSEDFGSYYCQHFWGPPYTFGSGTNLEIK	3.2

Now for another entry.
Measured OD 405 nm, anti-HER3 antibody M-43-01 (antibody, V domains shown, mouse hybridoma clone) VH: EVQLQQSGTVLARPGASVKMSCKASDYTFSNYWVHWVKQRPGQGLEWIGAIYPGNGDSTYYQKFKGKATLTAVTSTSTAYMDLSSLTNGDSAVYFCTRSGVGYNYYFDYWGQGTTLTVSS VL: DIQMTQSPASLSASVGETVTITCRASENIYSNLAWYQQKQGKSPQLLVYIATNLADGVPSRFSGSGSGTQFSLKINSLQPEDLGSYYCQHFYGTPFTFGTGTKLEIE : 3.27
